The reported numbers originate from patent US20240246941A1.

Documented pIC50 across a set of compounds
Molecular target: interaction between GST-MAGEA11 MHD and FAM-PCF11_4 peptide (MAGE-A11:PCF11) (Homo sapiens (Human), UniProt P43364)
Sequence (P43364 218-429): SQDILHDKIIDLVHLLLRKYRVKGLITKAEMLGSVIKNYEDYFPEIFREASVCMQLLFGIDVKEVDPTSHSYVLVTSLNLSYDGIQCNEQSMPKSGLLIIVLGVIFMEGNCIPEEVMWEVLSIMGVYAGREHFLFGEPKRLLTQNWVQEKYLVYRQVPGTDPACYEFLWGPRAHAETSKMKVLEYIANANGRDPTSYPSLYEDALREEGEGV
Experiment: TR-FRET dose response competition assay for disruption of MAGE-A11:PCF11 binding
Settings: Dose response TR-FRET screening of nine scaffold groups against MAGE-A11:PCF11; read-out: consensus IC50
Excerpt: TR-FRET Assays and High-throughput Screen. Terbium-anti-GST antibody, 1 M Tris pH 7.5 1 M MgCl2 and 1 M DTT were purchased from Invitrogen (Carlsbad, CA), BSA was purchased from Sigma (St. Louis, MO). Dimethyl sulfoxide (DMSO) was purchased from Fisher Scientific (Pittsburgh, PA). Black 384-well low volume plates and 384-well polypropylene compound plates were purchased from Corning Incorporated (Tewksbury, MA). […]
# reply with the number alone; pIC50 is -log10 of concentration in mol/L

Field: example entries. Status: answers known.
[[record]]
compound = "COc1cccc(CNCCCNc2ccnc3cc(C4CCCCC4)ccc23)c1O"
reported = 4.49

[[record]]
compound = "COc1ccc(F)cc1CNCCCNc1ccnc2cc(Oc3ccc(F)cc3)ccc12"
reported = 4.16

[[record]]
compound = "O=C1OCC(c2ccc(OC(F)F)cc2)=C1c1ccc([N+](=O)[O-])cc1"
reported = 4.39

[[record]]
compound = "Cn1c(-c2ccc(C(F)(F)F)cc2)nc2c1c(=O)[nH]c(=O)n2Cc1ccccc1"
reported = 4.16

[[record]]
compound = "CCOC(=O)COc1ccc(-c2nc3c(=O)n(C)c(=O)n(C)c3[nH]2)cc1OC"
reported = 4.16

[[record]]
compound = "O=C1c2ccccc2NC(c2ccc(F)c(F)c2)N1CCCN1CCOCC1 (stereo not shown)"
reported = 4.23

[[record]]
compound = "COc1cccc(CNCCCNc2ccnc3cc(-c4ccc(F)cc4)ccc23)c1O"
reported = 4.48

[[record]]
compound = "NC1=C(Nc2ccc(I)cc2)C(=O)c2ccccc2C1=O"
reported = 4.16

[[record]]
compound = "COc1ccc(F)cc1CNCCCNc1ccnc2cc(Cc3ccc(F)cc3)ccc12"
reported = 4.46

[[record]]
compound = "Fc1ccc(Oc2ccc3c(NCCCNCc4cccc5c4OCO5)ccnc3c2)cc1"
reported = 4.22


Input COc1cccc(CNCCCNc2ccnc3cc(Cc4cc(C)cc(C)c4)ccc23)c1O , output reported pIC50.
4.63

Input COc1ccc(OC(F)(F)F)cc1CNCCCNc1ccnc2cc(C(F)(F)F)ccc12 , output reported pIC50.
4.16

Input COP(=O)(OC)c1nc(-c2ccc([N+](=O)[O-])cc2)oc1N1CCOCC1 , output reported pIC50.
4.16

Input NC1=C(Nc2ccccc2)C(=O)c2ccccc2C1=O , output reported pIC50.
4.22

Input CCCn1c(-c2ccc(C(=O)O)cc2)nc2c1c(=O)[nH]c(=O)n2Cc1ccccc1 , output reported pIC50.
4.16

Input CCCn1c(=O)[nH]c(=O)c2c1nc(-c1ccc(OC)c(C)c1)n2CCOC , output reported pIC50.
4.16

Input COc1ccc(-c2ccc3c(NCCCNCc4cccc5c4OCO5)ccnc3c2)cc1 , output reported pIC50.
4.16

* * *

Biological target: MAGE-A11:PCF11 (Homo sapiens (Human))
Experiment: TR-FRET single point screening at 15 μM
Type: binding
Parameters: unit not given here
Conditions: single point TR-FRET screening of quinoline compounds against MAGE-A11:PCF11; 15 μM
observation type: TR-FRET signal
// response body must contain only the number

[[record]]
molecule = "CCCN(CCCNc1c2ccc(Cl)cc2nc2ccc(OC)cc12)CCCSC [SJ000522730]"
reported = 0.7867

[[record]]
molecule = "FC(F)(F)c1ccccc1CN(CCCNc1ccnc2cc(Cl)ccc12)Cc1ccccc1 [SJ000361168]"
reported = 2.509

[[record]]
molecule = "CC(C)Cc1ccc2c(NCCCNCc3ccco3)ccnc2c1 [SJ000311258]"
reported = 8.874

[[record]]
molecule = "CCCN(CCCNc1ccnc2cc(C(F)(F)F)ccc12)Cc1ccccc1OC(F)(F)F [SJ000520470]"
reported = 5.934

[[record]]
molecule = "COc1cccc(F)c1CN(CCCNc1ccnc2cc(Cl)ccc12)Cc1ccccc1 [SJ000357500]"
reported = "−2.857"


Input CCCN(CCCNc1ccnc2cc(Cl)ccc12)Cc1c(F)c(F)c(F)c(F)c1F [SJ000522748] , output reported TR-FRET signal.
19.87

Input CSCCCNCCCNc1ccnc2cc(Cl)ccc12 [SJ000523051] , output reported TR-FRET signal.
14.97

Input COc1ccc2nc3cc(Cl)ccc3c(NCCCNCc3ccc(-c4cccc(Cl)c4)o3)c2c1 [SJ000522959] , output reported TR-FRET signal.
−47.42

* * *

Target: UniProtKB P43364
Experiment: TR-FRET single point screening at 15 μM
Assay type: binding
Parameters: unit not given here
Details: single point TR-FRET screening of quinoline compounds against MAGE-A11:PCF11; 15 μM
observation type: TR-FRET signal
// response body must contain only the number

[[record]]
smiles_code = "CCCN(CCCNc1ccnc2cc(Cl)ccc12)Cc1cccnc1Br"
observation_type = "TR-FRET signal"
reported = 13.31

[[record]]
smiles_code = "CCCN(CCCNc1ccnc2cc(C(F)(F)F)ccc12)Cc1ccc2c(c1)OCO2"
observation_type = "TR-FRET signal"
reported = 5.623

[[record]]
smiles_code = "COc1ccc2nc3cc(Cl)ccc3c(NCCCNCc3cccc(C)c3)c2c1"
observation_type = "TR-FRET signal"
reported = "−7.089"

[[record]]
smiles_code = "CCCN(CCCNc1ccnc2cc(C(F)(F)F)ccc12)Cc1ccc(C)s1"
observation_type = "TR-FRET signal"
reported = 19.08

[[record]]
smiles_code = "CCCN(CCCNc1ccnc2cc(C(F)(F)F)ccc12)Cc1cc(C(F)(F)F)ccc1OC"
observation_type = "TR-FRET signal"
reported = 8.188


Input CCOC(=O)c1cnc2c(C)cc(C)cc2c1NCCCN1CCOCC1 , output reported TR-FRET signal.
6.494

Input Cn1cccc1CNCCCNc1ccnc2cc(C(F)(F)F)ccc12 , output reported TR-FRET signal.
−6.879

Input CCCN(CCCNc1ccnc2cc(Cl)ccc12)Cc1ccc2[nH]ccc2c1 , output reported TR-FRET signal.
96.84

Input Clc1ccc2c(NCCCN(Cc3ccccc3)CC3CC3)ccnc2c1 , output reported TR-FRET signal.
21.06

* * *

Molecular target: interaction between GST-MAGEA11 MHD and FAM-PCF11_4 peptide (MAGE-A11:PCF11) (Homo sapiens (Human))
Assay: TR-FRET dose response competition assay for disruption of MAGE-A11:PCF11 binding
Settings: Dose response TR-FRET screening of nine scaffold groups against MAGE-A11:PCF11; read-out: consensus IC50
observation type: pIC50
# reply with the number alone; pIC50 is -log10 of concentration in mol/L

Field: example entries. Status: answers known.
[[record]]
compound = "COc1ccc(OC)c(Nc2nc(N)c3ccccc3n2)c1 [SJ000202008-1]"
reported = 4.16

[[record]]
compound = "CCCCn1c(=O)[nH]c(=O)c2c1nc(-c1ccc(CC)c([N+](=O)[O-])c1)n2C [SJ000378868-1]"
reported = 4.16


// below: pIC50 requested for another compound
Input COc1ccc(F)cc1CNCCCNc1ccnc2cc(Cl)ccc12 [SJ000000500-3] , output reported pIC50.
4.16

* * *

Target: interaction between GST-MAGEA11 MHD and FAM-PCF11_4 peptide (MAGE-A11:PCF11) (Homo sapiens (Human))
Assay: TR-FRET dose response competition assay for disruption of MAGE-A11:PCF11 binding
Details: Dose response TR-FRET screening of nine scaffold groups against MAGE-A11:PCF11; read-out: consensus IC50
observation type: IC50 (µM)
Numeric answer only, unit µM assumed.

Field: example entries. Status: answers known.
[[record]]
compound = "Cn1c(-c2cc(Cl)ccc2O)nc2c1c(=O)[nH]c(=O)n2Cc1ccccc1"
observation_type = "IC50"
reported = 69.9

[[record]]
compound = "CCCn1c(=O)[nH]c(=O)c2c1nc(-c1cccc(F)c1)n2CCOC"
observation_type = "IC50"
reported = 69.9

[[record]]
compound = "COc1cccc(CNCCCNc2ccnc3cc(Cc4ccc(C#N)cc4)ccc23)c1O"
observation_type = "IC50"
reported = 51

[[record]]
compound = "FC(F)(F)c1cccc(CNCCCNc2ccnc3cc(C(F)(F)F)ccc23)c1"
observation_type = "IC50"
reported = 69.9

[[record]]
compound = "CCC(COC(C)=O)NC1=C(Cl)C(=O)c2ccccc2C1=O (centres unmarked)"
observation_type = "IC50"
reported = 17.2


Input Cc1cc(C)c(CNCCCNc2ccnc3cc(Cl)ccc23)c(C)c1 , output reported IC50.
68.1

Input FC(F)(F)Oc1ccc(CNCCCNc2ccnc3cc(C(F)(F)F)ccc23)cc1 , output reported IC50.
69.9

Input Nc1nc(Nc2ccccc2O)nc2ccccc12 , output reported IC50.
69.9

Input CCn1c2ccccc2c2cc(CN3CCc4nnc(CNC(=O)c5ccccc5)n4CC3)ccc21 , output reported IC50.
69.9

Input CS(=O)(=O)c1ccc(C2=C(c3ccccc3)C(=O)OC2)cc1 , output reported IC50.
67.6

Input CCCCn1c(=O)[nH]c(=O)c2c1nc(-c1ccc(OC)cc1)n2C , output reported IC50.
69.9

Input CCCN1C(=O)c2ccccc2NC1c1ccc(OC)c(CSc2ccccn2)c1 (centres unmarked) , output reported IC50.
69.9
